Reference source for all entries: the supplement of paper PMC7125110

B1: glmS ribozyme (parent)
chain: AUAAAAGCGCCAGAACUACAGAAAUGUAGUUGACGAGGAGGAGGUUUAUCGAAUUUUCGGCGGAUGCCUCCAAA

variants of: B1; assay: self-cleavage kobs at 160 uM GlcN6P; higher = faster cleavage; RNA array; conditions: with glucosamine-6-phosphate
This sample holds only a part of the variants without activity.
reportedEndpoint: self-cleavage kobs at 160 uM GlcN6P

C19A = 0.00456 s⁻¹
A15G C16U = 0.000875 s⁻¹
A6U G38U U47G = < 1e-05 s⁻¹
A53C U56A G59C G63U = < 1e-05 s⁻¹
A39U A42G = 0.00186 s⁻¹
A6G G32C C34G C71U = < 1e-05 s⁻¹

Query A12G G35A yields self-cleavage kobs at 160 uM GlcN6P of < 1e-05 s⁻¹

GET /value?item= C11U U31G &field=self-cleavage kobs at 160 uM GlcN6P returns 0.000255 s⁻¹

The variant G44U A53G showed self-cleavage kobs at 160 uM GlcN6P equal to 3.95e-05 s⁻¹

For record G9C G51U the listed self-cleavage kobs at 160 uM GlcN6P is < 1e-05 s⁻¹

// self-cleavage kobs at 160 uM GlcN6P value for U56G : 0.00186 s⁻¹

Reported self-cleavage kobs at 160 uM GlcN6P for G7U A12C G29C was < 1e-05 s⁻¹
